Source of measurements: paper PMC2751792

- target-under-test: recombinant human HDAC2 (Homo sapiens, UniProt Q92769)
- Sequence (Q92769 whole entry, canonical isoform): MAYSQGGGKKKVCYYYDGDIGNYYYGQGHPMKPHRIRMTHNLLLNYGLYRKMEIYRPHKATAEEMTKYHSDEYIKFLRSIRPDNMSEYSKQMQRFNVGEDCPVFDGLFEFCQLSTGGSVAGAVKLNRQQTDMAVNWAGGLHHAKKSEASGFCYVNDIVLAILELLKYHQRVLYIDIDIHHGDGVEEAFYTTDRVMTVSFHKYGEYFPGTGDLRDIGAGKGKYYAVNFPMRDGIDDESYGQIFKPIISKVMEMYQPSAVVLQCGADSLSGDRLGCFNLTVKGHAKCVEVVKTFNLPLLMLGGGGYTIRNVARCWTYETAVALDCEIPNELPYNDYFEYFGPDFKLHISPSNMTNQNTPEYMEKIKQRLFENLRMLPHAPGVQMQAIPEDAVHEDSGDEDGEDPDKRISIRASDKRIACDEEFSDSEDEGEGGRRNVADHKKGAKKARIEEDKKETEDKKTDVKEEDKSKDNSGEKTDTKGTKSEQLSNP
- assay-remarks: Recombinant HDAC isoform inhibition, HDAC2
quantity-name: pIC50
// pIC50 here means minus log10 of the molar concentration (mol/L)

Value of pIC50 reported for the molecule CCC(=O)CCCCC[C@@H]1NC(=O)[C@H](C)NC(=O)C[C@H](CC(C)C)NC(=O)[C@H](Cc2c[nH]c3ccccc23)NC1=O is 7.52

---

- target-under-test: recombinant human HDAC9 (Homo sapiens, UniProt Q9UKV0)
- Sequence (Q9UKV0 whole entry, canonical isoform): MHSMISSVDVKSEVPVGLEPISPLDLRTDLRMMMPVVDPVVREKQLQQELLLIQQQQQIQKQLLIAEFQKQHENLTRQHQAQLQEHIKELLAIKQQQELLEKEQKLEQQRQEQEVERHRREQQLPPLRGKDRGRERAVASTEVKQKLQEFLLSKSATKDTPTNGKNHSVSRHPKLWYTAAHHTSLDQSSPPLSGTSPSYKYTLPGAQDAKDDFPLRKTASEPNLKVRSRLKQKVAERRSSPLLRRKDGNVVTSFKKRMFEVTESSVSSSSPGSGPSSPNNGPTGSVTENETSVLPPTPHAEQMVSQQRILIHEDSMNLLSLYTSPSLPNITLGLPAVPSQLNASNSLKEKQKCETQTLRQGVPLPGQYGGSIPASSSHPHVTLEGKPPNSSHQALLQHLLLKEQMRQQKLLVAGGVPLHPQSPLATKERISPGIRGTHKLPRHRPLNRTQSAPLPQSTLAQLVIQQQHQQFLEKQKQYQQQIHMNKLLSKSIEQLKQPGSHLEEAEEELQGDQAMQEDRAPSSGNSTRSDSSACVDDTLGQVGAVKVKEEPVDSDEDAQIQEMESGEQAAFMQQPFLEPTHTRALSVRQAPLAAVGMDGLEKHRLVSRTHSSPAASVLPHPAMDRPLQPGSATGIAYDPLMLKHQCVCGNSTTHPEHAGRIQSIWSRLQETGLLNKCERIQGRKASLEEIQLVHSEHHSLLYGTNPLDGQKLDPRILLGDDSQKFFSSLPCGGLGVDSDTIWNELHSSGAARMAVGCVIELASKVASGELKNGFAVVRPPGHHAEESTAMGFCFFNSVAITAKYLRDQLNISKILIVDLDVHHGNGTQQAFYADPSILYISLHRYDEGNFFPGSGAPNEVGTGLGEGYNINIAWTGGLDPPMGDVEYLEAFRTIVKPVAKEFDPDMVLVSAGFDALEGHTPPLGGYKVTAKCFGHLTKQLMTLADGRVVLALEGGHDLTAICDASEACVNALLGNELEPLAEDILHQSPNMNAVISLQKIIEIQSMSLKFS
- assay-remarks: Recombinant HDAC isoform inhibition, HDAC9
pIC50: −log10 of the molar value. Square brackets hold non-standard residues; d marks the D form. Peptide text beside a SMILES is read from it. * marks the point of attachment. Asu = N[C@@H](CCCCCC(=O)O)C(=O)O; β3hL = CC(C)C[C@H](N)CC(=O)O; NHOH = ON*
Would you mind labelling by pIC50? At or over 8 is YES, under is NO.

INPUT: Reported pIC50 reaches at least 8 for CCC(=O)CCCCC[C@@H]1NC(=O)[C@H](C)N(C)C(=O)C[C@H](CC(C)C)NC(=O)[C@H](Cc2c[nH]c3ccccc23)NC1=O ?
OUTPUT: NO

INPUT: Hi, just wondering whether CCC(=O)CCCCC[C@@H]1NC(=O)[C@H](C)NC(=O)C[C@H](CC(C)C)NC(=O)[C@H](Cc2c[nH]c3ccccc23)NC1=O shows pIC50 of 8 or higher.
OUTPUT: NO

INPUT: Confirm if pIC50 reported for the compound CC(C)C[C@H]1CC(=O)N[C@@H](C)C(=O)N[C@@H](CCCCCC(=O)O)C(=O)N[C@@H](Cc2c[nH]c3ccccc23)C(=O)N1 [3b] (cyclo([Asu]W[β3hL]A)) is 8 or above.
OUTPUT: NO

INPUT: Please tell me: is the compound CCC(=O)CCCCC[C@@H]1NC(=O)[C@@H]2CCCN2C(=O)C[C@H](CC(C)C)NC(=O)[C@H](Cc2c[nH]c3ccccc23)NC1=O at or over 8 in terms of pIC50?
OUTPUT: NO

Next:
INPUT: Check if pIC50 >= 8 (inclusive). Item: CC(C)C[C@H]1CC(=O)N[C@@H](C)C(=O)N[C@@H](CCCCCC(=O)NO)C(=O)N[C@@H](Cc2c[nH]c3ccccc23)C(=O)N1 [3a] (cyclo([Asu](NHOH)W[β3hL]A))
OUTPUT: YES

---

compounds and their reported IC50
- target-under-test: recombinant human HDAC7 (Homo sapiens, UniProt Q8WUI4)
- Sequence (Q8WUI4 whole entry, canonical isoform): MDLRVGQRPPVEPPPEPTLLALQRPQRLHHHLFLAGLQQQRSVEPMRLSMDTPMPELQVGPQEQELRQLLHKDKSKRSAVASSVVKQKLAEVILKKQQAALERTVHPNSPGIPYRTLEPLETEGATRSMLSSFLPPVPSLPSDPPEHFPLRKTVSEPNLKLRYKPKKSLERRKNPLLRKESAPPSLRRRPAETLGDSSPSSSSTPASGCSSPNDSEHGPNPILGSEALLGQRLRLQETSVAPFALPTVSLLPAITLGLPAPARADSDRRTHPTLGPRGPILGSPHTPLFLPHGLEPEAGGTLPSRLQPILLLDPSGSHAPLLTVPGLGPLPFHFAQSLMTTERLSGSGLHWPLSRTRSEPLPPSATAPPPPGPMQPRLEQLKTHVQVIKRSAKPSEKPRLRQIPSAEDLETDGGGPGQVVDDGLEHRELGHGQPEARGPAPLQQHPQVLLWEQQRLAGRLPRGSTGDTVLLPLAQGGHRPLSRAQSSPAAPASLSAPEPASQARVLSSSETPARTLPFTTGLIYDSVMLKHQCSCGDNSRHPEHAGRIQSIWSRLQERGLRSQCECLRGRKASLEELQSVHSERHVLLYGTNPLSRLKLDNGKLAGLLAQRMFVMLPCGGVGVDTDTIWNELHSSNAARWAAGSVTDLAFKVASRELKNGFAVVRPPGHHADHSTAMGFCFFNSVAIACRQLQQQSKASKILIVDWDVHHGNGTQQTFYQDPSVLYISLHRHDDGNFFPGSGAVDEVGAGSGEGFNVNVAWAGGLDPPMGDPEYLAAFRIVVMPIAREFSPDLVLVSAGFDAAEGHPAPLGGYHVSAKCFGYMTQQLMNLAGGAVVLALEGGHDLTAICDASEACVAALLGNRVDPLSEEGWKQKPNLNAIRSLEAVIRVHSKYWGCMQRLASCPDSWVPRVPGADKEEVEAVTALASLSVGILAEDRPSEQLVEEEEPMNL
- assay-remarks: Recombinant HDAC isoform inhibition, HDAC7
Square brackets hold non-standard residues; d marks the D form. Peptide text beside a SMILES is read from it. * marks the point of attachment. Asu = N[C@@H](CCCCCC(=O)O)C(=O)O; β3hL = CC(C)C[C@H](N)CC(=O)O; NHOH = ON*

Worked cases, IC50 given:
Query CC(C)C[C@H]1CC(=O)N[C@@H](C)C(=O)N[C@@H](CCCCCC(=O)O)C(=O)N[C@@H](Cc2c[nH]c3ccccc23)C(=O)N1 [3b] (cyclo([Asu]W[β3hL]A)) yields IC50 of > 10 µM

The recorded IC50 for CC(C)C[C@H]1CC(=O)N2CCC[C@H]2C(=O)N[C@@H](CCCCCC(=O)NO)C(=O)N[C@@H](Cc2c[nH]c3ccccc23)C(=O)N1 [4a] (cyclo([Asu](NHOH)W[β3hL]P)) is > 10 µM

Value of measured IC50 for the entry CCC(=O)CCCCC[C@@H]1NC(=O)[C@H](C)NC(=O)C[C@H](CC(C)C)NC(=O)[C@H](Cc2c[nH]c3ccccc23)NC1=O : > 10 µM

Measured IC50 of CC(C)C[C@H]1CC(=O)N[C@@H](C)C(=O)N[C@@H](CCCCCC(=O)NO)C(=O)N[C@@H](Cc2c[nH]c3ccccc23)C(=O)N1 [3a] (cyclo([Asu](NHOH)W[β3hL]A)) : > 10 µM

The compound CCC(=O)CCCCC[C@@H]1NC(=O)[C@H](C)N(C)C(=O)C[C@H](CC(C)C)NC(=O)[C@H](Cc2c[nH]c3ccccc23)NC1=O showed IC50 equal to > 10 µM

In the following, a different compound is considered.
So, CCC(=O)CCCCC[C@@H]1NC(=O)[C@@H]2CCCN2C(=O)C[C@H](CC(C)C)NC(=O)[C@H](Cc2c[nH]c3ccccc23)NC1=O ? Its IC50 was > 10 µM
